// provenance: patent US20080161366A1

Entries annotated with measured log10 IC50
measuredTarget: human norepinephrine transporter (hNET) (Homo sapiens)
Sequence (P23975 whole entry): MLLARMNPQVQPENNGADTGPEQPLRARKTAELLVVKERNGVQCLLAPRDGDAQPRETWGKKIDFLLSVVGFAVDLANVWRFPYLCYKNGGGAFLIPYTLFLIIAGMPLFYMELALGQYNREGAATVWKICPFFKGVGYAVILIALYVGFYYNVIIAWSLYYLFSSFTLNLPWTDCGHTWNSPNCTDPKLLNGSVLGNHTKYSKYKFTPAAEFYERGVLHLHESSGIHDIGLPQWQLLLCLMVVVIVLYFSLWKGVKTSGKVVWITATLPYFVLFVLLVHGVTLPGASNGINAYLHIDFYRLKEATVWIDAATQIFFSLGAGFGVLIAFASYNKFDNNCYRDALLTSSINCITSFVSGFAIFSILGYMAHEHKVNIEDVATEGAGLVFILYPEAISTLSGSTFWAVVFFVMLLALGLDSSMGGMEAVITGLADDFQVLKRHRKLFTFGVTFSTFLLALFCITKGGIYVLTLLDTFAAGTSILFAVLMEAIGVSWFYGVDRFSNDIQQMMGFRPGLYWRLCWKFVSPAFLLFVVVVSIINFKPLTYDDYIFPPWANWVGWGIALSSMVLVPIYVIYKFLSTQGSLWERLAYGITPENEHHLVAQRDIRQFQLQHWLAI
experimentNotes: hNET uptake, Protocol B: cell based norepinephrine reuptake assay using recombinant hNET (MDCK-Net6 cells)
conditionLabel: NE uptake (Protocol B) IC50 (nM), MDCK-Net6 cells, 3H-NE 16 nM
Where a name gives a salt, the structure may show the parent alone.
For clarity, the numbers are log10 values of IC50 expressed in nM.

O=S1(=O)N(CCNC2CCNCC2)c2ccccc2N1c1ccccc1 [Example 134, dihydrochloride]
1.83

// CCNCCCCN1c2ccccc2N(c2ccc(C)cc2F)S1(=O)=O : log10 IC50 value = 2.76

====

measuredTarget: UniProt P23975
experimentNotes: hNET uptake, Protocol B: cell based norepinephrine reuptake assay using recombinant hNET (MDCK-Net6 cells)
conditionLabel: NE uptake (Protocol B) IC50 (nM), MDCK-Net6 cells, 3H-NE 16 nM
Where a name gives a salt, the structure may show the parent alone.
readoutType: IC50 (nM)
Could you give me the number in nM? Just the number is fine.

IC50 measured on O=S1(=O)N(CCCNC2CCNCC2)c2ccccc2N1c1ccccc1F [Example 131, dihydrochloride] = 365

// field: IC50; key: CNCCCN1c2ccccc2N(c2c(F)cc(F)cc2F)S1(=O)=O [Example 77, hydrochloride] ; value = 15

Entry O=S1(=O)N(CCCCNC2CCCCC2)c2ccccc2N1c1c(F)cccc1F [Example 125, hydrochloride] — recorded IC50 = 440

Entry CN(C)CCCCCN1c2ccccc2N(c2ccccc2F)S1(=O)=O [Example 67] ; IC50 = 298
